Data provenance is paper PMC10923852.

# study.system: T1, BIN1 SH3 (Homo sapiens, UniProt O00499)
# T1 chain: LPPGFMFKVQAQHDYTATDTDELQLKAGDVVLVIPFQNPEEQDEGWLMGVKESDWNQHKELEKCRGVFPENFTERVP
# assay.overview: fluorescence polarization saturation
pKd: −log10 of the molar value. Where no end group is shown, it is not given here.
reported.property: pKd

Which pKd is reported for this binder? KRGPPPRSGGPPPKRSAPSGP (also: FITC-labeled, site not given here) [hnRNP G 150-170]
~3.40
